- Target Or Test System: human ether-à-go-go-related gene (hERG) potassium channel (human);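 also: peak tail current of the secondary pulse compared with the same well before compound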
- Sequence (Q12809 whole entry, looked up): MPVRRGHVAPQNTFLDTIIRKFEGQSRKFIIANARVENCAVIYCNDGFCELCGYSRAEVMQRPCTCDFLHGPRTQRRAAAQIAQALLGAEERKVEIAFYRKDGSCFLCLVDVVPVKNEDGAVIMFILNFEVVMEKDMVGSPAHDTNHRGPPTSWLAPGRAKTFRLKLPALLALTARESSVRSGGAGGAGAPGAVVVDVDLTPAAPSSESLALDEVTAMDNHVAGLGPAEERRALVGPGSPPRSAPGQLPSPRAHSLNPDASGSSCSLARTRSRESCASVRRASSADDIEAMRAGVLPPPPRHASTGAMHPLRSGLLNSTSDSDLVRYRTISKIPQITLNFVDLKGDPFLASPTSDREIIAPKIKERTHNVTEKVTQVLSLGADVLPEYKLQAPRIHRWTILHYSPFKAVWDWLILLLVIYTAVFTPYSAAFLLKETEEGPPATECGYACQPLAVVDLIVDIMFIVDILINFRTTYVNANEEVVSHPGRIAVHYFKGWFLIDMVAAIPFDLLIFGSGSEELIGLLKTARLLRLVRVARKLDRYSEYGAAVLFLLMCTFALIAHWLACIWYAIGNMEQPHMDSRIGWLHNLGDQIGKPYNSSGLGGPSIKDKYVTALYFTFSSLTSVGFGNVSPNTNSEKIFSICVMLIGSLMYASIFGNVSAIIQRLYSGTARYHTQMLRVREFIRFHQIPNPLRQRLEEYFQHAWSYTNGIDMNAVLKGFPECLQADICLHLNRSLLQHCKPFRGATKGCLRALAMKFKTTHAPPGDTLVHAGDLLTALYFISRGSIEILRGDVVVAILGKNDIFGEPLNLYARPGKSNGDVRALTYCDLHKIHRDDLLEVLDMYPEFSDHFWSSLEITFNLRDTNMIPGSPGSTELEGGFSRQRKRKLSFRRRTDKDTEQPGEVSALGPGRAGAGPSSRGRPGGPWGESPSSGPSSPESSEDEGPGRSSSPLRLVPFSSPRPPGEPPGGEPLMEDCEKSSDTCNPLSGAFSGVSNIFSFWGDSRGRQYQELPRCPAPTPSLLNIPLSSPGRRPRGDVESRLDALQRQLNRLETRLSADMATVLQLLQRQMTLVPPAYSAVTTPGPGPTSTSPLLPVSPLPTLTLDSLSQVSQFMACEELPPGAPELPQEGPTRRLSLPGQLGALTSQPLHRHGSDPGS
- Assay: primary screen, population patch clamp on CHO cells stably expressing hERG; higher = less effect of the substance
Out of some 310,000 compounds screened, about 14,000 (4.5%) showed an effect of 50% or more. Effects have a minus sign here. The sample holds strong results, similar compounds and a random draw of the others, so the mix is not that of the screen.
Hi, to clarify the labels: Y covers hERG current change (%, negative = inhibition) at 10uM from -20% upward, N covers anything below -20%.

Compound	Target Or Test System	Category
CC1(C)CC(=O)C(C=NCCN2CCN(C3CC(=O)N(c4ccc(F)cc4)C3=O)CC2)=C(O)C1 (stereo not drawn)	human ether-à-go-go-related gene (hERG) potassium channel (human)	Y
CC1(C)CC(=O)C(C=NCCN2CCN(C(=O)Cc3ccccc3)CC2)=C(O)C1	human ether-à-go-go-related gene (hERG) potassium channel (human)	N
Cc1ccc(NC(=O)c2sc3nc4c(c(-c5ccco5)c3c2N)CCC4)cc1	human ether-à-go-go-related gene (hERG) potassium channel (human)	Y
CC1(C)CC(=O)C(C=NCCN2CCN(C3CC(=O)N(c4ccc(Cl)c(Cl)c4)C3=O)CC2)=C(O)C1 (stereo not drawn)	human ether-à-go-go-related gene (hERG) potassium channel (human)	N
CC1(C)CC(=O)C(C=NCCN2CCN(C(=S)Nc3ccc(F)cc3)CC2)=C(O)C1	human ether-à-go-go-related gene (hERG) potassium channel (human)	N
Clc1ccc(-c2nnc(SCc3ccon3)o2)c(Cl)c1	human ether-à-go-go-related gene (hERG) potassium channel (human)	N
CC1(C)CC(=O)C(C=NCCN2CCN(C(=O)Cc3ccc(F)cc3)CC2)=C(O)C1	human ether-à-go-go-related gene (hERG) potassium channel (human)	N
CC1(C)CC(=O)C(C=NCCN2CCN(C(=S)Nc3ccccc3)CC2)=C(O)C1	human ether-à-go-go-related gene (hERG) potassium channel (human)	Y
Cc1nnc(N/N=C/C2CC=CCC2)[nH]c1=O (stereo not drawn)	human ether-à-go-go-related gene (hERG) potassium channel (human)	Y
